Every entry's value here was drawn from patent US20240415819A1.

In this section, each of the compounds is paired with its reported pIC50.
molecular target: β5 subunit of the human immunoproteasome (IPS) (Homo sapiens, UniProt P28062); test: β5 inhibition assay, human immunoproteasome (Suc-LLVY-AMC); conditions: IC50 class, Suc-LLVY-AMC substrate
pIC50: −log10 of the molar value.

Some compounds with recorded pIC50:
Cc1ccc2cc1CNC(=O)[C@H](CCc1ccccc1)NC(=O)[C@@H](NC(=O)C13CC(O)(C1)C3)CC(=O)N1CCCC(CCO2)C1 (stereo partly drawn) ... > 7.00
Cc1ccc2cc1CNC(=O)[C@H](CCc1ccccc1)NC(=O)[C@@H](NC(=O)CCO[C@H]1C[C@@H]3CC[C@H]1C3)CC(=O)N1CCCC(CCO2)C1 ... > 7.00
Cc1ccc2cc1CNC(=O)C(c1cnn(C)c1)NC(=O)[C@@H](NC(=O)CN1CCCC1)CC(=O)N1CCCC(CCO2)C1 (stereo partly drawn) ... > 7.00
CC(=O)N[C@H]1CCCC(=O)N(C)CCCCOc2ccc(C)c(c2)CNC(=O)[C@H](CCc2ccccc2)NC1=O ... > 7.00
Cc1ccc2cc1CNC(=O)C(CCc1cnccn1)NC(=O)[C@@H](NC(=O)Cc1ccc(N)cc1F)CC(=O)N1CCCC(CCO2)C1 (stereo partly drawn) ... > 7.00

Turning to the following compound.
Enquiry: Name the recorded pIC50 of the item Cc1ccc2cc1CNC(=O)[C@H](CCc1ccccc1)NC(=O)CCC(=O)N1CCCC(CCO2)C1 (stereo partly drawn) in your answer.
Return: > 7.00

---

test system: hPMBC; assay: Chymotrypsin-like ProteasomeGlo assay in hPBMC; format: cell-based; conditions: Homo sapiens; read-out: Pglo hPBMC
In this section, each of the compounds is paired with its reported IC50.

CC(=O)N[C@H]1CC(=O)N2CCCC(CCOc3ccc(C)c(c3)CNC(=O)C(Cc3ccccc3)NC1=O)C2 (some centres unmarked) [Compound 558] ... < 100 nM
COC(=O)N(CC1NC(=O)[C@@H](NC(C)=O)CC(=O)N2CCCC(CCOc3ccc(C)c(c3)CNC1=O)C2)c1ccccc1 (some centres unmarked) [Compound 560] ... < 100 nM
Cc1ccc2cc1CNC(=O)[C@H](CCc1ccccc1)NC(=O)[C@@H](NC(=O)OCc1ccccc1)CCC(=O)N1CCCC(CCO2)C1 (some centres unmarked) [Compound 199] ... < 100 nM

Enquiry: Name the recorded IC50 of the item Cc1ccc2cc1CNC(=O)C(c1cnn(C)c1)NC(=O)CCC(=O)N1CCCC(CCO2)C1 (centres unmarked) [Compound 116] in your answer.
Return: 500 to 1000 nM

Enquiry: Name the recorded IC50 of the item Cc1ccc2cc1CNC(=O)[C@H](CCc1ccccc1)NC(=O)[C@@H](NC(=O)CCc1ccccc1-c1ccccc1)CC(=O)N1CCCC(CCO2)C1 (some centres unmarked) [Compound 177] in your answer.
Return: < 100 nM

Enquiry: Name the recorded IC50 of the item Cc1ccc2cc1CNC(=O)[C@H](CCc1ccccc1)NC(=O)[C@@H](NC(=O)Cc1cc(O)on1)CC(=O)N1CCCC(CCO2)C1 (some centres unmarked) [Compound 335] in your answer.
Return: < 100 nM

---

In this section, each of the compounds is paired with its reported pIC50.
tested on: B cell; experiment: B cell diff. (Table 4, method not given); format: cell-based; conditions: B-cell
pIC50: −log10 of the molar value.

CC(=O)N[C@H]1CC(=O)N2CCCC(CCOc3ccc(C)c(c3)CNC(=O)[C@H](CCc3ccccc3)NC1=O)C2 (stereo partly drawn) ... > 7.00
Cc1ccc2cc1CNC(=O)[C@H](CCc1ccccc1)NC(=O)CCC(=O)N1CCCC(CCO2)C1 (stereo partly drawn) ... 6.30 to 7.00
Cc1ccc2cc1CNC(=O)[C@H](CCc1ccccc1)NC(=O)[C@@H](NC(=O)Cc1ccccc1)CC(=O)N1CCCC(CCO2)C1 (stereo partly drawn) ... > 7.00
Cc1ccc2cc1CNC(=O)[C@H](CCc1ccccc1)NC(=O)[C@@H](NS(C)(=O)=O)CC(=O)N1CCCC(CCO2)C1 (stereo partly drawn) ... > 7.00
Cc1ccc2cc1CNC(=O)[C@H](CCc1ccccc1)NC(=O)[C@@H](Nc1ccccn1)CC(=O)N1CCCC(CCO2)C1 (stereo partly drawn) ... > 7.00

Enquiry: Name the recorded pIC50 of the item Cc1ccc2cc1CNC(=O)[C@H](CCc1ccccc1)NC(=O)[C@@H](Nc1nc3ccccc3[nH]1)CC(=O)N1CCCC(CCO2)C1 (stereo partly drawn) in your answer.
Return: > 7.00

Enquiry: Name the recorded pIC50 of the item Cc1ccc2cc1CNC(=O)[C@H](CCc1ccccc1)NC(=O)[C@@H](NC(=O)c1ccncc1)CC(=O)N1CCCC(CCO2)C1 (stereo partly drawn) in your answer.
Return: > 7.00

Enquiry: Name the recorded pIC50 of the item Cc1ccc2cc1CNC(=O)[C@H](CCc1ccccc1)NC(=O)[C@@H](NC1COC1)CC(=O)N1CCCC(CCO2)C1 (stereo partly drawn) in your answer.
Return: > 7.00

Enquiry: Name the recorded pIC50 of the item Cc1ccc2cc1CNC(=O)[C@H](CCc1ccccc1)NC(=O)CCCCC(=O)N1CCCC(CCO2)C1 (stereo partly drawn) in your answer.
Return: > 7.00
